- Assay Summary: Absolute oral bioavailability in Kunming mouse at 868.1 nmol/kg measured up to 120 mins by LC-MS/MS analysis
- Format: ADME, organism-based
- Stated Conditions: in vivo
Bridge positions count the residues as written; N and C are the ends. Square brackets hold non-standard residues; d marks the D form. Peptide text beside a SMILES is read from it. NMeF = CN[C@@H](Cc1ccccc1)C(=O)O

- Compound: "CN1C(=O)CNC(=O)[C@H](NC(=O)[C@@H](N)Cc2ccc(O)cc2)CCCCNC(=O)C[C@@H](C(=O)N2CCC[C@H]2C(=O)N[C@@H](CCC(N)=O)C(=O)N[C@@H](CCCNC(=N)N)C(=O)N[C@@H](Cc2ccccc2)C(N)=O)NC(=O)[C@@H]1Cc1ccccc1 (H-Y[dK]G[NMeF]DPQRF-NH2; lactam 2-5)"
  bioavailability [%]: 43.8

###

Reported EC50 by item:
- Target Or Test System: Neuropeptide FF receptor 2 (Homo sapiens)
- Sequence (Q9Y5X5 whole entry): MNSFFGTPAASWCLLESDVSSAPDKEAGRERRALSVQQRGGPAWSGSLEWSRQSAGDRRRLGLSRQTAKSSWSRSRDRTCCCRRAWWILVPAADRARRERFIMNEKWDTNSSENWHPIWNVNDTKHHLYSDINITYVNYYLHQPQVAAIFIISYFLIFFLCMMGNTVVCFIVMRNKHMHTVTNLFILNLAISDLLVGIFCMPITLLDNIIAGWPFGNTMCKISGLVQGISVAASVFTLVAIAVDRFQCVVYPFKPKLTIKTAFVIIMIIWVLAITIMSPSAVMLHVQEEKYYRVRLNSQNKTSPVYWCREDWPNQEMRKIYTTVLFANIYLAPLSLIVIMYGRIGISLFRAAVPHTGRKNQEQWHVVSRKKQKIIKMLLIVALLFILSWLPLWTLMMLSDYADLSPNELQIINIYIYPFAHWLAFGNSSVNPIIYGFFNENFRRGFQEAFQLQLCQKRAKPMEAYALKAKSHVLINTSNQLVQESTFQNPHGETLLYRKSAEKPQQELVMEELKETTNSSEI
- Assay Summary: Agonist activity at NPFF2R (unknown origin) expressed in HEK293-A cells assessed as inhibition of forskolin-induced cAMP accumulation preincubated for 30 mins in presence of 3-isobutyl-1-methylxanthine followed by forskolin and compound addition by competitive PKA binding assay
- Type: functional, cell-based
- Stated Conditions: read-out: EC50
Bridge positions count the residues as written; N and C are the ends. Square brackets hold non-standard residues; d marks the D form. Peptide text beside a SMILES is read from it. NMeF = CN[C@@H](Cc1ccccc1)C(=O)O; dDab = NCC[C@@H](N)C(=O)O; dDap = NC[C@@H](N)C(=O)O

- Compound: "CN1C(=O)CNC(=O)[C@H](NC(=O)[C@@H](N)Cc2ccc(O)cc2)CCCCNC(=O)C[C@@H](C(=O)N2CCC[C@H]2C(=O)N[C@@H](CCC(N)=O)C(=O)N[C@@H](CCCNC(=N)N)C(=O)N[C@@H](Cc2ccccc2)C(N)=O)NC(=O)[C@@H]1Cc1ccccc1 (H-Y[dK]G[NMeF]DPQRF-NH2; lactam 2-5)"
  EC50 [nM]: 49.8
- Compound: "CN1C(=O)CNC(=O)[C@H](NC(=O)[C@@H](N)Cc2ccc(O)cc2)CCNC(=O)C[C@@H](C(=O)N2CCC[C@H]2C(=O)N[C@@H](CCC(N)=O)C(=O)N[C@@H](CCCNC(=N)N)C(=O)N[C@@H](Cc2ccccc2)C(N)=O)NC(=O)[C@@H]1Cc1ccccc1 (H-Y[dDab]G[NMeF]DPQRF-NH2; lactam 2-5)"
  EC50 [nM]: 265
- Compound: "CN1C(=O)CNC(=O)[C@H](NC(=O)[C@@H](N)Cc2ccc(O)cc2)CCCCNC(=O)C[C@H](C(=O)N2CCC[C@H]2C(=O)N[C@@H](CCC(N)=O)C(=O)N[C@@H](CCCNC(=N)N)C(=O)N[C@@H](Cc2ccccc2)C(N)=O)NC(=O)[C@@H]1Cc1ccccc1 (H-Y[dK]G[NMeF][dD]PQRF-NH2; lactam 2-5)"
  EC50 [nM]: 190
- Compound: "CN1C(=O)CNC(=O)[C@@H](NC(=O)[C@@H](N)Cc2ccc(O)cc2)CCCCNC(=O)C[C@@H](C(=O)N2CCC[C@H]2C(=O)N[C@@H](CCC(N)=O)C(=O)N[C@@H](CCCNC(=N)N)C(=O)N[C@@H](Cc2ccccc2)C(N)=O)NC(=O)[C@@H]1Cc1ccccc1 (H-YKG[NMeF]DPQRF-NH2; lactam 2-5)"
  EC50 [nM]: 112
- Compound: "CN1C(=O)CNC(=O)[C@H](NC(=O)[C@@H](N)Cc2ccc(O)cc2)CNC(=O)C[C@@H](C(=O)N2CCC[C@H]2C(=O)N[C@@H](CCC(N)=O)C(=O)N[C@@H](CCCNC(=N)N)C(=O)N[C@@H](Cc2ccccc2)C(N)=O)NC(=O)[C@@H]1Cc1ccccc1 (H-Y[dDap]G[NMeF]DPQRF-NH2; lactam 2-5)"
  EC50 [nM]: 349

###

Bridge positions count the residues as written; N and C are the ends. Square brackets hold non-standard residues; d marks the D form. Peptide text beside a SMILES is read from it. NMeF = CN[C@@H](Cc1ccccc1)C(=O)O; dDab = NCC[C@@H](N)C(=O)O
Recorded log10 of EC50 values (UniProt:P35372) are given below.
Sequence (P35372 whole entry): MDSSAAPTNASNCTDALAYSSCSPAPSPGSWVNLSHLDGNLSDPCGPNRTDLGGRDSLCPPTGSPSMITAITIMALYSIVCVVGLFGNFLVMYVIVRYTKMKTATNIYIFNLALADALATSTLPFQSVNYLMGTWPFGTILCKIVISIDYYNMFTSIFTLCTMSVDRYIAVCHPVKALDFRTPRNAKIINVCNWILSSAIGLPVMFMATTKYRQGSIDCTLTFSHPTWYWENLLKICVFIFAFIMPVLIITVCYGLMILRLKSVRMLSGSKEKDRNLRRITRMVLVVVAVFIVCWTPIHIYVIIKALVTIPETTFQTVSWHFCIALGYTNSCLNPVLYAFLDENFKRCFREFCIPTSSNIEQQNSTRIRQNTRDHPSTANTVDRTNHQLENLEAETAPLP
Measured Metric: log10 of EC50 (log10 of the value in nM)

- Molecule: "CN1C(=O)CNC(=O)[C@@H](NC(=O)[C@@H](N)Cc2ccc(O)cc2)CCCCNC(=O)C[C@H](C(=O)N2CCC[C@H]2C(=O)N[C@@H](CCC(N)=O)C(=O)N[C@@H](CCCNC(=N)N)C(=O)N[C@@H](Cc2ccccc2)C(N)=O)NC(=O)[C@@H]1Cc1ccccc1 (H-YKG[NMeF][dD]PQRF-NH2; lactam 2-5)"
  log10 of EC50: 2.22
- Molecule: "CN1C(=O)CNC(=O)[C@H](NC(=O)[C@@H](N)Cc2ccc(O)cc2)CCNC(=O)C[C@@H](C(=O)N2CCC[C@H]2C(=O)N[C@@H](CCC(N)=O)C(=O)N[C@@H](CCCNC(=N)N)C(=O)N[C@@H](Cc2ccccc2)C(N)=O)NC(=O)[C@@H]1Cc1ccccc1 (H-Y[dDab]G[NMeF]DPQRF-NH2; lactam 2-5)"
  log10 of EC50: 1.58
- Molecule: "CN1C(=O)CNC(=O)[C@H](NC(=O)[C@@H](N)Cc2ccc(O)cc2)CCCCNC(=O)C[C@@H](C(=O)N2CCC[C@H]2C(=O)N[C@@H](CCC(N)=O)C(=O)N[C@@H](CCCNC(=N)N)C(=O)N[C@@H](Cc2ccccc2)C(N)=O)NC(=O)[C@@H]1Cc1ccccc1 (H-Y[dK]G[NMeF]DPQRF-NH2; lactam 2-5)"
  log10 of EC50: 1.97
- Molecule: "CN1C(=O)CNC(=O)[C@H](NC(=O)[C@@H](N)Cc2ccc(O)cc2)CCCCNC(=O)C[C@H](C(=O)N2CCC[C@H]2C(=O)N[C@@H](CCC(N)=O)C(=O)N[C@@H](CCCNC(=N)N)C(=O)N[C@@H](Cc2ccccc2)C(N)=O)NC(=O)[C@@H]1Cc1ccccc1 (H-Y[dK]G[NMeF][dD]PQRF-NH2; lactam 2-5)"
  log10 of EC50: 2.77
- Molecule: "CN1C(=O)CNC(=O)[C@H](NC(=O)[C@@H](N)Cc2ccc(O)cc2)CC(=O)NCCCC[C@@H](C(=O)N2CCC[C@H]2C(=O)N[C@@H](CCC(N)=O)C(=O)N[C@@H](CCCNC(=N)N)C(=O)N[C@@H](Cc2ccccc2)C(N)=O)NC(=O)[C@@H]1Cc1ccccc1 (H-Y[dD]G[NMeF]KPQRF-NH2; lactam 2-5)"
  log10 of EC50: 1.82

###

- Test system: Mus musculus
- Assay Summary: Antinociceptive activity against Kunming mouse model of thermal-induced nociception assessed as peripheral analgesia administered subcutaneously by tail-flick test
- Assay type: functional
- Stated Conditions: sc
Bridge positions count the residues as written; N and C are the ends. Square brackets hold non-standard residues; d marks the D form. Peptide text beside a SMILES is read from it. NMeF = CN[C@@H](Cc1ccccc1)C(=O)O; dDap = NC[C@@H](N)C(=O)O

- Molecule: "CN1C(=O)CNC(=O)[C@H](NC(=O)[C@@H](N)Cc2ccc(O)cc2)CCCCNC(=O)C[C@@H](C(=O)N2CCC[C@H]2C(=O)N[C@@H](CCC(N)=O)C(=O)N[C@@H](CCCNC(=N)N)C(=O)N[C@@H](Cc2ccccc2)C(N)=O)NC(=O)[C@@H]1Cc1ccccc1 (H-Y[dK]G[NMeF]DPQRF-NH2; lactam 2-5)"
  ED50 (µmol/kg): 0.00028
- Molecule: "CN1C(=O)CNC(=O)[C@H](NC(=O)[C@@H](N)Cc2ccc(O)cc2)CNC(=O)C[C@@H](C(=O)N2CCC[C@H]2C(=O)N[C@@H](CCC(N)=O)C(=O)N[C@@H](CCCNC(=N)N)C(=O)N[C@@H](Cc2ccccc2)C(N)=O)NC(=O)[C@@H]1Cc1ccccc1 (H-Y[dDap]G[NMeF]DPQRF-NH2; lactam 2-5)"
  ED50 (µmol/kg): 0.0135

###

- Target Or Test System: UniProt:Q9Y5X5
- Assay Summary: Agonist activity at NPFF2R (unknown origin) expressed in HEK293-A cells assessed as inhibition of forskolin-induced cAMP accumulation by measuring maximal efficacy preincubated for 30 mins in presence of 3-isobutyl-1-methylxanthine followed by forskolin and compound addition by competitive PKA binding assay relative to control
- Assay type: functional, cell-based
- Stated Conditions: filed as agonist
Bridge positions count the residues as written; N and C are the ends. Square brackets hold non-standard residues; d marks the D form. Peptide text beside a SMILES is read from it. NMeF = CN[C@@H](Cc1ccccc1)C(=O)O; dOrn = NCCC[C@@H](N)C(=O)O

- Molecule: "CN1C(=O)CNC(=O)[C@H](NC(=O)[C@@H](N)Cc2ccc(O)cc2)CCCNC(=O)C[C@@H](C(=O)N2CCC[C@H]2C(=O)N[C@@H](CCC(N)=O)C(=O)N[C@@H](CCCNC(=N)N)C(=O)N[C@@H](Cc2ccccc2)C(N)=O)NC(=O)[C@@H]1Cc1ccccc1 (H-Y[dOrn]G[NMeF]DPQRF-NH2; lactam 2-5)"
  Emax: "52.8%"
- Molecule: "CN1C(=O)CNC(=O)[C@H](NC(=O)[C@@H](N)Cc2ccc(O)cc2)CCCCNC(=O)C[C@H](C(=O)N2CCC[C@H]2C(=O)N[C@@H](CCC(N)=O)C(=O)N[C@@H](CCCNC(=N)N)C(=O)N[C@@H](Cc2ccccc2)C(N)=O)NC(=O)[C@@H]1Cc1ccccc1 (H-Y[dK]G[NMeF][dD]PQRF-NH2; lactam 2-5)"
  Emax: "59%"
- Molecule: "CN1C(=O)CNC(=O)[C@@H](NC(=O)[C@@H](N)Cc2ccc(O)cc2)CCCCNC(=O)C[C@@H](C(=O)N2CCC[C@H]2C(=O)N[C@@H](CCC(N)=O)C(=O)N[C@@H](CCCNC(=N)N)C(=O)N[C@@H](Cc2ccccc2)C(N)=O)NC(=O)[C@@H]1Cc1ccccc1 (H-YKG[NMeF]DPQRF-NH2; lactam 2-5)"
  Emax: "68.1%"
